Value source: the kinase profiling compilation of Christmann-Franck et al. (2016)

molecular target: MAP4K2 (human); experiment: KINOMEscan competition binding; settings: compound 10.0 µM
Field 'label' (enum: Fulfilled / Not fulfilled). Set to Fulfilled when kinase still bound, per cent of control is strictly under 60%; else Not fulfilled.

Here's an entry: OCCCNc1cc(-c2ccnc(Nc3cccc(Cl)c3)n2)ccn1 . Is its kinase still bound, per cent of control below 60%? Not fulfilled

Find out if reported kinase still bound, per cent of control for Nc1ccc(-c2ccc3ncc4ccc(=O)n(-c5cccc(C(F)(F)F)c5)c4c3c2)cn1 is less than 60% Not fulfilled

Confirm or reject: kinase still bound, per cent of control of CCN1CCN(Cc2ccc(Nc3ncc4c(n3)N(C)c3ccccc3C(=O)N4C)cc2C(F)(F)F)CC1 lies strictly below 60% Fulfilled

For the next question, use this compound.
Dear colleague, could you confirm whether kinase still bound, per cent of control of CCC(=O)N1CCN(c2ccc(-n3c(=O)ccc4cnc5ccc(-c6cnc7ccccc7c6)cc5c43)cc2C(F)(F)F)CC1 falls below 60%? Thanks. Fulfilled
